Tested on: IL-23 induced STAT3 signaling (IL-23 receptor) in HEK-Blue IL-23 cells
Assay: Inhibition of IL-23 induced STAT3 signaling in HEK-Blue IL-23 cells, SEAP reporter (Table 9)
Assay type: cell-based
Details: human IL23 0.25 ng/ml, overnight, read-out: Inhibition of IL-23 induced pSTAT3 (IC50 nM)
Numbered stars: 1 amine (or outer) side, 2 acyl side, 3 side chain; on linkers, the order of the positions; unused ones are H or OH. Bridge positions count the residues as written; N and C are the ends. Square brackets hold non-standard residues; d marks the D form. Peptide text beside a SMILES is read from it. * marks the point of attachment. Lys(Me,(CH2)4NMe(CH2)4CO) = CN(CCCCC(=O)[*:3])CCCCN(C)CCCC[C@H](N[*:1])C(=O)[*:2]; Trp(7-Me) = Cc1cccc2c(C[C@H](N)C(=O)O)c[nH]c12; Trp(1-Me) = Cn1cc(C[C@H](N)C(=O)O)c2ccccc21; NH(2-(3-pyridyl)ethyl) = c1cncc(CCN*)c1; Sebacoyl = O=C(CCCCCCCCC(=O)[*:2])[*:1]; 2Nal = N[C@@H](Cc1ccc2ccccc2c1)C(=O)O; C12 diacid = O=C(O)CCCCCCCCCCC(=O)*; 3Pal = N[C@@H](Cc1cccnc1)C(=O)O; Lys(Me) = CNCCCC[C@H](N)C(=O)O; Aun = NCCCCCCCCCCC(=O)O; Thp = NC1(C(=O)O)CCOCC1; Me2NCH2CH2 = CN(C)CC*; Aib = CC(C)(N)C(=O)O; Sar = CNCC(=O)O
readout.label: log10 of IC50 (log10 of the value in nM)
All values: base-10 log of IC50 in nM.

| compound | readout.label | data.value |
| --- | --- | --- |
| CN(C)CCOc1ccc(C[C@@H]2NC(=O)C3(CCOCC3)NC(=O)[C@H](CCC(N)=O)NC(=O)[C@H](Cc3cn(C)c4ccccc34)NC(=O)CCCCN(C)CCCCN(C)CCCC[C@@H](C(=O)NCC(=O)N[C@@H](Cc3cccnc3)C(=O)N(C)CC(N)=O)NC(=O)C(C)(C)NC(=O)[C@H](Cc3ccc4ccccc4c3)NC2=O)cc1 [compound 30] ([Trp(1-Me)]Q[Thp]Y(Me2NCH2CH2)[2Nal][Aib][Lys(Me,(CH2)4NMe(CH2)4CO)]G[3Pal][Sar]-NH2; lactam N-7) | log10 of IC50 | 0.59 |
| Cc1cccc2c(C[C@@H]3NC(=O)CCCCN(C)CCCCN(C)CCCC[C@@H](C(=O)NCC(=O)N[C@@H](Cc4cccnc4)C(=O)N(C)CC(N)=O)NC(=O)C(C)(C)NC(=O)[C@H](Cc4ccc5ccccc5c4)NC(=O)[C@H](Cc4ccc(OCCN(C)C)cc4)NC(=O)C4(CCOCC4)NC(=O)[C@H](CCC(N)=O)NC3=O)c[nH]c12 [compound 28] ([Trp(7-Me)]Q[Thp]Y(Me2NCH2CH2)[2Nal][Aib][Lys(Me,(CH2)4NMe(CH2)4CO)]G[3Pal][Sar]-NH2; lactam N-7) | log10 of IC50 | 0.33 |

Give measured log10 of IC50 for every item shown.
1. Cc1cccc2c(C[C@@H]3NC(=O)CCCCCCCCCCNC(=O)CC[C@@H](C(=O)N[C@@H](CC(N)=O)C(=O)N[C@@H](Cc4cccnc4)C(=O)N(C)CC(N)=O)NC(=O)C(C)(C)NC(=O)[C@H](Cc4ccc5ccccc5c4)NC(=O)[C@H](Cc4ccc(OCCN(C)C)cc4)NC(=O)C(C)(C)NC(=O)[C@H](CCC(N)=O)NC3=O)c[nH]c12 [compound 35] ([Aun][Trp(7-Me)]Q[Aib]Y(Me2NCH2CH2)[2Nal][Aib]EN[3Pal][Sar]-NH2; lactam N-8)
2. Cc1cccc2c(C[C@@H]3NC(=O)CCCCCCCCCCC(=O)NCCCC[C@@H](C(=O)N[C@@H](CC(N)=O)C(=O)N[C@@H](Cc4cccnc4)C(=O)N(C)CC(N)=O)NC(=O)C(C)(C)NC(=O)[C@H](Cc4ccc5ccccc5c4)NC(=O)[C@H](Cc4ccc(OCCN(C)C)cc4)NC(=O)C4(CCOCC4)NC(=O)[C@H](CCC(N)=O)NC3=O)c[nH]c12 [compound 10] ([Trp(7-Me)]Q[Thp]Y(Me2NCH2CH2)[2Nal][Aib]KN[3Pal][Sar]-NH2; linker N-7 via C12 diacid)
3. Cc1cccc2c(C[C@@H]3NC(=O)CCCCCCCCC(=O)N(C)CCCC[C@@H](C(=O)NCC(=O)NCCc4cccnc4)NC(=O)C(C)(C)NC(=O)[C@H](Cc4ccc5ccccc5c4)NC(=O)[C@H](Cc4ccc(OCCN(C)C)cc4)NC(=O)C4(CCOCC4)NC(=O)[C@H](CC(C)C)NC3=O)c[nH]c12 [compound 17] ([Trp(7-Me)]L[Thp]Y(Me2NCH2CH2)[2Nal][Aib][Lys(Me)]G-{NH(2-(3-pyridyl)ethyl)}; linker N-7 via Sebacoyl)

Solution:
-0.22
-0.46
1.16
